biological target: human GABAA α2β2γ1 receptor (Homo sapiens (Human), UniProt P47869+Q8N1C3); assay: Radioligand binding assay for γ1-containing GABAA subtypes, [3H]RO7239181 competition (α2β2γ1); settings: Ki h-GABAA α2β2γ1, displacement of [3H]RO7239181, membranes of HEK293F cells expressing human receptors, means of two determinations
Can you tell me pKi for the items I'm about to list?
// pKi is dimensionless: -log10 of concentration (M)

Fill in pKi for C[C@@H]1N=C(c2c(F)cccc2F)c2c(ccc(Cl)c2Cl)-n2nc(C(=O)NCCO)nc21 [Example 54] tested with human GABAA α2β2γ1 receptor (Homo sapiens (Human), UniProt P47869+Q8N1C3).
8.36

Fill in pKi for COC1CN(C(=O)c2nc3n(n2)-c2ccc(C(F)(F)F)c(Cl)c2C(c2c(F)cccc2F)=N[C@H]3C)C1 [Example 23] tested with human GABAA α2β2γ1 receptor (Homo sapiens (Human), UniProt P47869+Q8N1C3).
7.93

Fill in pKi for C[C@@H]1N=C(c2c(F)cccc2F)c2c(ccc(Cl)c2Cl)-n2nc(C(=O)N3CC[C@@H](O)C3)nc21 [Example 47] tested with human GABAA α2β2γ1 receptor (Homo sapiens (Human), UniProt P47869+Q8N1C3).
8.46

Fill in pKi for [2H]C([2H])([2H])NC(=O)c1nc2n(n1)-c1ccc(Cl)c(Cl)c1C(c1c(F)cccc1F)=N[C@H]2C [Example 20] tested with human GABAA α2β2γ1 receptor (Homo sapiens (Human), UniProt P47869+Q8N1C3).
8.28

Fill in pKi for C[C@@H]1N=C(c2c(F)cccc2F)c2c(ccc(Cl)c2Cl)-n2nc(N3CC(O)C3)nc21 [Example 66] tested with human GABAA α2β2γ1 receptor (Homo sapiens (Human), UniProt P47869+Q8N1C3).
8.21

Fill in pKi for C[C@@H]1N=C(c2ncccc2F)c2c(ccc(C(F)(F)F)c2Cl)-n2nc(NC(=O)NC3COC3)nc21 [Example 146] tested with human GABAA α2β2γ1 receptor (Homo sapiens (Human), UniProt P47869+Q8N1C3).
7.44

Fill in pKi for C[C@@H]1N=C(c2ncccc2F)c2c(ccc(C(F)(F)F)c2Cl)-n2cc(C(=O)N[C@H]3C[C@H](O)C3)nc21 [Example 165] tested with human GABAA α2β2γ1 receptor (Homo sapiens (Human), UniProt P47869+Q8N1C3).
7.36

Fill in pKi for [2H]C([2H])([2H])N(C(=O)c1nc2n(n1)-c1ccc(Cl)c(Cl)c1C(c1c(F)cccc1F)=N[C@H]2C)C([2H])([2H])[2H] [Example 19] tested with human GABAA α2β2γ1 receptor (Homo sapiens (Human), UniProt P47869+Q8N1C3).
7.49

Fill in pKi for C[C@@H]1N=C(c2ncccc2F)c2c(ccc(C(F)(F)F)c2Cl)-n2nc(C(=O)N3CC4(CCCO4)C3)nc21 [Example 113] tested with human GABAA α2β2γ1 receptor (Homo sapiens (Human), UniProt P47869+Q8N1C3).
7.72

Fill in pKi for C[C@@H]1N=C(c2ncccc2F)c2c(ccc(C(F)(F)F)c2Cl)-n2cc(C(=O)NCCO)nc21 [Example 141] tested with human GABAA α2β2γ1 receptor (Homo sapiens (Human), UniProt P47869+Q8N1C3).
7.25

Fill in pKi for C[C@@H]1N=C(c2c(F)cccc2F)c2c(ccc(Cl)c2Cl)-n2nc(C(=O)NC3(C#N)CC3)nc21 [Example 61] tested with human GABAA α2β2γ1 receptor (Homo sapiens (Human), UniProt P47869+Q8N1C3).
8.38

Fill in pKi for C[C@@H]1N=C(c2c(F)cccc2F)c2c(ccc(Cl)c2Cl)-n2nc(C(=O)N3CCS(=O)(=O)CC3)nc21 [Example 36] tested with human GABAA α2β2γ1 receptor (Homo sapiens (Human), UniProt P47869+Q8N1C3).
8.46

Fill in pKi for C[C@@H]1N=C(c2c(F)cccc2F)c2c(ccc(Cl)c2Cl)-n2cc(C(=O)N3CC(O)C3)nc21 [Example 68] tested with human GABAA α2β2γ1 receptor (Homo sapiens (Human), UniProt P47869+Q8N1C3).
8.14

Fill in pKi for C[C@@H]1N=C(c2c(F)cccc2F)c2c(ccc(Cl)c2Cl)-n2nc(C(=O)NC[C@@H](C)O)nc21 [Example 65] tested with human GABAA α2β2γ1 receptor (Homo sapiens (Human), UniProt P47869+Q8N1C3).
8.24

Fill in pKi for C[C@@H]1N=C(c2ncccc2F)c2c(ccc(C(F)(F)F)c2Cl)-n2cc(CO)nc21 [Example 153] tested with human GABAA α2β2γ1 receptor (Homo sapiens (Human), UniProt P47869+Q8N1C3).
7.21

Fill in pKi for C[C@@H]1N=C(c2c(F)cccc2F)c2c(ccc(Cl)c2Cl)-n2nc(C(=O)NCCF)nc21 [Example 30] tested with human GABAA α2β2γ1 receptor (Homo sapiens (Human), UniProt P47869+Q8N1C3).
8.14

Fill in pKi for Cc1cnc2n1-c1ccc(Br)c(Cl)c1C(c1c(F)cccc1F)=N[C@H]2C [Example 116] tested with human GABAA α2β2γ1 receptor (Homo sapiens (Human), UniProt P47869+Q8N1C3).
8.24

Fill in pKi for CCNC(=O)c1nc2n(n1)-c1ccc(Cl)c(Cl)c1C(c1c(F)cccc1F)=N[C@H]2C [Example 64] tested with human GABAA α2β2γ1 receptor (Homo sapiens (Human), UniProt P47869+Q8N1C3).
8.27

Fill in pKi for [2H]C([2H])([2H])OC1CN(C(=O)c2nc3n(n2)-c2ccc(Cl)c(Cl)c2C(c2ncccc2F)=N[C@H]3C)C1 [Example 39] tested with human GABAA α2β2γ1 receptor (Homo sapiens (Human), UniProt P47869+Q8N1C3).
7.75

Fill in pKi for CNC(=O)c1nc2n(n1)-c1ccc(Cl)c(Cl)c1C(c1c(F)cccc1F)=NC2 [Example 6] tested with human GABAA α2β2γ1 receptor (Homo sapiens (Human), UniProt P47869+Q8N1C3).
8.26

Fill in pKi for C[C@@H]1N=C(c2c(F)cccc2F)c2c(ccc(C(F)(F)F)c2Cl)-n2nc(C(=O)NCCO)nc21 [Example 107] tested with human GABAA α2β2γ1 receptor (Homo sapiens (Human), UniProt P47869+Q8N1C3).
7.94

Fill in pKi for C[C@@H]1N=C(c2ncccc2F)c2c(ccc(Cl)c2Cl)-n2nc(C(=O)NC3CC3)nc21 [Example 88] tested with human GABAA α2β2γ1 receptor (Homo sapiens (Human), UniProt P47869+Q8N1C3).
7.04

Fill in pKi for COCCNC(=O)c1nc2n(n1)-c1ccc(Cl)c(Cl)c1C(c1c(F)cccc1F)=N[C@H]2C [Example 28] tested with human GABAA α2β2γ1 receptor (Homo sapiens (Human), UniProt P47869+Q8N1C3).
8.41

Fill in pKi for COC1CN(C(=O)c2nc3n(n2)-c2ccc(Cl)c(Cl)c2C(c2c(F)cccc2F)=N[C@H]3C)C1 [Example 16] tested with human GABAA α2β2γ1 receptor (Homo sapiens (Human), UniProt P47869+Q8N1C3).
8.28

Fill in pKi for C[C@@H]1N=C(c2c(F)cccc2F)c2c(ccc(C(F)(F)F)c2Cl)-n2nc(C(=O)NC[C@@H](C)O)nc21 [Example 105] tested with human GABAA α2β2γ1 receptor (Homo sapiens (Human), UniProt P47869+Q8N1C3).
7.86

Fill in pKi for C[C@@H]1N=C(c2ncccc2F)c2c(ccc(C(F)(F)F)c2Cl)-n2nc(C(=O)N3CCS(=O)(=O)CC3)nc21 [Example 124] tested with human GABAA α2β2γ1 receptor (Homo sapiens (Human), UniProt P47869+Q8N1C3).
7.58

Fill in pKi for C[C@@H]1N=C(c2ncccc2F)c2c(ccc(Br)c2Cl)-n2nc(C(=O)N3CCC3)nc21 [Example 48] tested with human GABAA α2β2γ1 receptor (Homo sapiens (Human), UniProt P47869+Q8N1C3).
7.73

Fill in pKi for COC1CN(C(=O)c2nc3n(n2)-c2ccc(C(F)(F)F)c(Cl)c2C(c2ncccc2F)=N[C@H]3C)C1 [Example 103] tested with human GABAA α2β2γ1 receptor (Homo sapiens (Human), UniProt P47869+Q8N1C3).
7.60

Fill in pKi for Cc1cnc2n1-c1ccc(C(F)(F)F)c(Cl)c1C(c1c(F)cccc1F)=N[C@H]2C [Example 115] tested with human GABAA α2β2γ1 receptor (Homo sapiens (Human), UniProt P47869+Q8N1C3).
7.91

###

biological target: human GABAA α2β2γ1 receptor (Homo sapiens (Human), UniProt P47869+Q8N1C3); assay: Radioligand binding assay for γ1-containing GABAA subtypes, [3H]RO7239181 competition (α2β2γ1); conditions: Ki h-GABAA α2β2γ1, displacement of [3H]RO7239181, membranes of HEK293F cells expressing human receptors, means of two determinations
readout-label: pKi
// pKi is dimensionless: -log10 of concentration (M)

Fill in pKi for `CC1CN(C(=O)c2cn3c(n2)[C@H](C)N=C(c2ncccc2F)c2c-3ccc(C(F)(F)F)c2Cl)C1` tested with human GABAA α2β2γ1 receptor (Homo sapiens (Human), UniProt P47869+Q8N1C3).
7.00

Fill in pKi for `C[C@@H]1N=C(c2c(F)cccc2F)c2c(ccc(C(F)(F)F)c2Cl)-n2c1nc1c2CCC1` tested with human GABAA α2β2γ1 receptor (Homo sapiens (Human), UniProt P47869+Q8N1C3).
7.63

Fill in pKi for `C[C@@H]1N=C(c2ncccc2F)c2c(ccc(C(F)(F)F)c2Cl)-n2nc(NC(=O)NC3CC3)nc21` tested with human GABAA α2β2γ1 receptor (Homo sapiens (Human), UniProt P47869+Q8N1C3).
7.34

Fill in pKi for `C[C@@H]1N=C(c2ncccc2F)c2c(ccc(C(F)(F)F)c2Cl)-n2cc(C(=O)N3CC(C(F)F)C3)nc21` tested with human GABAA α2β2γ1 receptor (Homo sapiens (Human), UniProt P47869+Q8N1C3).
7.03

Fill in pKi for `COC1CN(C(=O)c2nc3n(n2)-c2ccc(Cl)c(Cl)c2C(c2c(F)cccc2F)=NC3)C1` tested with human GABAA α2β2γ1 receptor (Homo sapiens (Human), UniProt P47869+Q8N1C3).
8.57

Fill in pKi for `C[C@@H]1N=C(c2ncccc2F)c2c(ccc(C(F)(F)F)c2Cl)-n2c(CO)cnc21` tested with human GABAA α2β2γ1 receptor (Homo sapiens (Human), UniProt P47869+Q8N1C3).
7.03

Fill in pKi for `C[C@@H]1N=C(c2c(F)cccc2F)c2c(ccc(Cl)c2Cl)-n2nc(C(=O)N3CC[C@H](F)C3)nc21` tested with human GABAA α2β2γ1 receptor (Homo sapiens (Human), UniProt P47869+Q8N1C3).
7.84
